assayed_system: Aromatase (Homo sapiens) (UniProt P11511)
Sequence (P11511 whole entry, looked up): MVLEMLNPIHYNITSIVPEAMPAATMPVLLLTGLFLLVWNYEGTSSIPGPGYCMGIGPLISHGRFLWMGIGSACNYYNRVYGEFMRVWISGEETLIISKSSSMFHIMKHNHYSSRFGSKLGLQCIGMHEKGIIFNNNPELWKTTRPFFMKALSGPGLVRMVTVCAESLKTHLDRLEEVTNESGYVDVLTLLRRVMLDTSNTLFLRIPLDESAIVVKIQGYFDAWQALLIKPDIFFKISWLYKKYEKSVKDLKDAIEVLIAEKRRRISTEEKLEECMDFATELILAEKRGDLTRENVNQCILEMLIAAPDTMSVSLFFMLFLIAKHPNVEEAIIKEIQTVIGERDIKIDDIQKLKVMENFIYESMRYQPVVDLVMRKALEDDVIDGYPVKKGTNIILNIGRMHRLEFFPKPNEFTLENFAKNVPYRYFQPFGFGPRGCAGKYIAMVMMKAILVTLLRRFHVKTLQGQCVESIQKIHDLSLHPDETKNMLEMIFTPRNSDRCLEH
assay_method_text: qHTS assay to identify aromatase inhibitors (AID 743083); also: nearly all actives have a fitted effect of over 55% in size
experimental_conditions: MCF-7 aro ERE, testosterone-driven ERE luciferase, 24 h; series mostly up to 70.3 µM
Records with an inconclusive call do not appear. Activity calls are given as the source filed them. Calls follow the shape of the dose curve; as a rule, active = well fitted inhibition curve with a large enough effect in the repeat runs; inconclusive = weak or mixed curves; inactive = no such curve, though single readings can be large or run the other way.
Outcome codes: TRUE for active, FALSE for inactive

{"compound": "O=C(O)c1cc(C(=O)O)c(C(=O)O)cc1C(=O)O", "class_assignment": "FALSE"}
{"compound": "CC(O)C(C)O (centres undefined)", "class_assignment": "FALSE"}
{"compound": "OCC(O)c1ccccc1 (centres undefined)", "class_assignment": "FALSE"}
{"compound": "CCOc1ccccc1O", "class_assignment": "FALSE"}
{"compound": "O=C(OCCCCCOC(=O)c1ccccc1)c1ccccc1", "class_assignment": "FALSE"}
{"compound": "CO[C@@H]1COCC[C@@H]1N[C@@H]1CC[C@@](C(=O)N2CCc3ncc(C(F)(F)F)cc3C2)(C(C)C)C1", "class_assignment": "FALSE"}
{"compound": "O=C(O)c1ccccc1[N+](=O)[O-]", "class_assignment": "FALSE"}
{"compound": "CC[C@H](NC(C)C)[C@H](O)c1ccc(O)c2[nH]c(=O)ccc12", "class_assignment": "FALSE"}
{"compound": "CCC(=O)O[C@@H]1C[C@H]2CC[C@]1(C)C2(C)C", "class_assignment": "FALSE"}
{"compound": "CCCCCCCCCCCCCCCCC(=O)O", "class_assignment": "FALSE"}
{"compound": "C/C=C1\\[C@H]2C=C(C)C[C@]1(N)c1ccc(=O)[nH]c1C2", "class_assignment": "FALSE"}
{"compound": "O=C1c2ccccc2C(=O)c2c1ccc(O)c2O", "class_assignment": "FALSE"}
{"compound": "CCCCCCCCOCCCN", "class_assignment": "FALSE"}
{"compound": "NC(=O)c1cc[n+](CC2=C(C(=O)[O-])N3C(=O)[C@@H](NC(=O)Cc4cccs4)[C@H]3SC2)cc1", "class_assignment": "FALSE"}
{"compound": "CC(=O)Nc1ccccc1O", "class_assignment": "FALSE"}
{"compound": "CC1=CC(=C(c2ccc(N)cc2)c2ccc(N)cc2)C=CC1=N", "class_assignment": "TRUE"}
{"compound": "O=[N+]([O-])c1ccccc1CCO", "class_assignment": "FALSE"}
{"compound": "CC(C)=CCC/C(C)=C/C=N/O", "class_assignment": "FALSE"}
{"compound": "C=C(C)C(=O)OCCCCCCCCCCOC(=O)C(=C)C", "class_assignment": "FALSE"}
{"compound": "CC(=O)CC/C=C(\\C)CC/C=C(\\C)CC/C=C(\\C)CCC=C(C)C", "class_assignment": "FALSE"}
{"compound": "C[C@]12CCC(=O)C=C1[C@@H]1C[C@@H]1[C@H]1[C@@H]3[C@@H]4C[C@@H]4[C@@]4(CCC(=O)O4)[C@@]3(C)CC[C@@H]12", "class_assignment": "FALSE"}
{"compound": "CC(C)(C)NCC(O)COc1ccc(NC(=O)NC2CCCCC2)cc1 (centres undefined)", "class_assignment": "FALSE"}
{"compound": "COC(=O)Cc1cccc2ccccc12", "class_assignment": "FALSE"}
{"compound": "C[C@H]1C[C@H]2[C@@H]3CCC4=CC(=O)C=C[C@]4(C)[C@@]3(F)[C@@H](O)C[C@]2(C)[C@@]1(O)C(=O)COP(=O)(O)O", "class_assignment": "FALSE"}

###

assay_method_text: A CellTox Green Cytotoxicity Assay to monitor cytotoxicity in HepG2 cells - 40 hour (AID 1224879); also: nearly all actives have a fitted effect of over 40% in size
experimental_conditions: CellTox Green fluorescence; series mostly up to 76.8 µM
Inconclusive results are not listed. Active and inactive are the calls of the source. Calls follow the shape of the dose curve; as a rule, active = well fitted activation curve with a large enough effect in the repeat runs; inconclusive = weak or mixed curves; inactive = flat fitted curve, though single readings scatter.
Outcome codes: active, inactive

{"molecule": "CC(=O)Nc1ccccc1O", "class_assignment": "inactive"}
{"molecule": "N#CCCCC(C#N)CCC#N (stereo unspecified)", "class_assignment": "inactive"}
{"molecule": "O=P(c1ccccc1)(c1ccccc1)c1ccccc1", "class_assignment": "inactive"}
{"molecule": "CCCCCCCCCCCCCCCCC(=O)O", "class_assignment": "inactive"}
{"molecule": "Cc1c(Cl)cccc1Nc1ccccc1C(=O)O", "class_assignment": "inactive"}
{"molecule": "CNc1ccccc1", "class_assignment": "inactive"}
{"molecule": "CCc1ccc2c(c1)C(=O)c1ccccc1C2=O", "class_assignment": "inactive"}
{"molecule": "C1=COCCC1", "class_assignment": "inactive"}
{"molecule": "Oc1ccc(Oc2ccccc2)cc1", "class_assignment": "active"}
{"molecule": "CCC[Si](OC)(OC)OC", "class_assignment": "inactive"}
{"molecule": "COc1ccc(C(=O)c2ccc(C)cc2)c(O)c1", "class_assignment": "inactive"}
{"molecule": "CCOc1cc(OCC)c(C(C)=O)cc1OCC", "class_assignment": "inactive"}
{"molecule": "C(/C=C/C=C/Nc1ccccc1)=Nc1ccccc1", "class_assignment": "inactive"}
{"molecule": "Cc1ccc2c(Cl)cc(Cl)c(O)c2n1", "class_assignment": "inactive"}
{"molecule": "Nc1ccc(F)cc1F", "class_assignment": "inactive"}
{"molecule": "CCc1ccc(C(=O)C(C)CN2CCCCC2)cc1 (stereo unspecified)", "class_assignment": "inactive"}
{"molecule": "O=C(O)CCc1nc2ccccc2[nH]1", "class_assignment": "inactive"}
{"molecule": "CC(C)CCCCCOC(=O)CS", "class_assignment": "inactive"}
{"molecule": "CC(C)(C)N", "class_assignment": "inactive"}
{"molecule": "CC(=O)CC/C=C(\\C)CC/C=C(\\C)CC/C=C(\\C)CCC=C(C)C", "class_assignment": "inactive"}
{"molecule": "COC(=O)/C=C/C(C)=C\\C=C\\C(C)=C\\C=C\\C=C(C)\\C=C\\C=C(C)\\C=C\\C(=O)O", "class_assignment": "inactive"}
{"molecule": "O=C(O)c1ccc(O)c(O)c1", "class_assignment": "inactive"}
{"molecule": "COc1ccc(CN(CCN(C)C)c2ncccn2)cc1", "class_assignment": "inactive"}
{"molecule": "Nc1ccc(-c2ccc(F)cc2)cc1", "class_assignment": "inactive"}
{"molecule": "Cc1nc2sccn2c(=O)c1CCN1CCC(=C(c2ccc(F)cc2)c2ccc(F)cc2)CC1", "class_assignment": "inactive"}
{"molecule": "CCCCCO", "class_assignment": "inactive"}
{"molecule": "Cc1c(-c2cccnc2)c2ccccc2n1CCCCC(=O)O", "class_assignment": "inactive"}
{"molecule": "CC/C=C\\CCO", "class_assignment": "inactive"}
{"molecule": "O=C1c2ccccc2C(=O)c2c1ccc(O)c2O", "class_assignment": "inactive"}
{"molecule": "CCCCCC1CCC(=O)O1 (stereo unspecified)", "class_assignment": "inactive"}
{"molecule": "SCCOCCOCCS", "class_assignment": "inactive"}
{"molecule": "C[C@]12CCC(=O)C=C1[C@@H]1C[C@@H]1[C@H]1[C@@H]3[C@@H]4C[C@@H]4[C@@]4(CCC(=O)O4)[C@@]3(C)CC[C@@H]12", "class_assignment": "inactive"}
{"molecule": "Cc1ccc2ccccc2c1[N+](=O)[O-]", "class_assignment": "inactive"}
{"molecule": "CCCCOC(=O)CC#N", "class_assignment": "inactive"}
{"molecule": "CC(C)NC(=O)c1ccccc1N", "class_assignment": "inactive"}
{"molecule": "CC(C)C/C=C(\\C=O)c1ccccc1", "class_assignment": "inactive"}
{"molecule": "O=C(O)CNc1ccccc1", "class_assignment": "inactive"}
{"molecule": "CCN(CC)CC(=O)OCC(=O)[C@@]1(O)CC[C@H]2[C@@H]3CCC4=CC(=O)CC[C@]4(C)[C@H]3[C@@H](O)C[C@@]21C", "class_assignment": "inactive"}
{"molecule": "CCCc1nc(C)c2c(=O)[nH]c(-c3cc(S(=O)(=O)N4CCN(CC)CC4)ccc3OCC)nn12", "class_assignment": "inactive"}
{"molecule": "Cc1cc(N)n(-c2ccccc2)n1", "class_assignment": "inactive"}
{"molecule": "Nc1ccccc1Nc1ccccc1", "class_assignment": "inactive"}
{"molecule": "O=C1c2ccccc2C(=O)C1c1ccc2cc(S(=O)(=O)O)cc(S(=O)(=O)O)c2n1", "class_assignment": "inactive"}
{"molecule": "Cc1cccc(C)c1NC(=O)CN1CCCC1", "class_assignment": "inactive"}
{"molecule": "CCOc1ccc(NC(C)=O)cc1N", "class_assignment": "inactive"}
{"molecule": "C[C@H](N)C(=O)N[C@@H](C)C(=O)NC1[C@H]2CN(c3nc4c(cc3F)c(=O)c(C(=O)O)cn4-c3ccc(F)cc3F)C[C@@H]12 (stereo partly specified)", "class_assignment": "inactive"}
{"molecule": "O=[N+]([O-])c1cccc(I)c1", "class_assignment": "inactive"}
{"molecule": "OCCc1ccncc1", "class_assignment": "inactive"}
{"molecule": "N#Cc1ccc(CC(=O)c2cccc(C(F)(F)F)c2)cc1", "class_assignment": "inactive"}
{"molecule": "O=c1[nH][nH]c2ccccc12", "class_assignment": "inactive"}
{"molecule": "O=C1C=CCCC1", "class_assignment": "inactive"}
{"molecule": "NC(=O)c1cc[n+](CC2=C(C(=O)[O-])N3C(=O)[C@@H](NC(=O)Cc4cccs4)[C@H]3SC2)cc1", "class_assignment": "inactive"}
{"molecule": "CCOC(C)OCC", "class_assignment": "inactive"}
{"molecule": "S=c1[nH][nH]c(=S)s1", "class_assignment": "inactive"}
{"molecule": "Cc1cc(SC2=C(O)C[C@@](CCc3ccc(N)cc3)(C(C)C)OC2=O)c(C(C)(C)C)cc1CO", "class_assignment": "inactive"}
{"molecule": "CCCCCCCCNC", "class_assignment": "inactive"}
{"molecule": "Cc1cc(C)c(C)c(O)c1", "class_assignment": "inactive"}
